# Assay overview: Plasma protein binding in dog
# Format: ADME, cell-free, Canis lupus familiaris
# Test parameters: read-out: PPB (converted)

{"columns": ["Smiles string", "fraction unbound"],
 "data": [
  ["C[C@H]1CC[C@H](Cn2c(N3CCO[C@@H]4CCC[C@H]43)nc3cc(-c4noc(=O)[nH]4)nc(-c4cncc(Cl)c4)c32)CC1", 0.009]
]}

====

# Assay overview: Bioavailability in dog
# Format: ADME, organism-based, Canis lupus familiaris
# Test parameters: in vivo
Tick t if bioavailability is 50% or greater. Tick f if bioavailability is less than 50%.

{"columns": ["Compound", "Group"],
 "data": [
  ["CCO[C@@H](c1nc2cc(-c3noc(=O)[nH]3)nc(-c3cncc(Cl)c3)c2n1[C@H](C)[C@H]1CC[C@H](C)CC1)C1CC1", "t"],
  ["C[C@H]1CC[C@H](Cn2c(N3CCC[C@H]3CF)nc3cc(-c4noc(=O)[nH]4)nc(-c4cncc(Cl)c4)c32)CC1", "f"],
  ["C[C@H]1CC[C@H](Cn2c(N3CCO[C@@H]4CCC[C@H]43)nc3cc(-c4noc(=O)[nH]4)nc(-c4cncc(Cl)c4)c32)CC1", "t"],
  ["C[C@H]1CC[C@H](Cn2c(N3CCOC[C@H]3c3ccccc3)nc3cc(-c4noc(=O)[nH]4)nc(-c4cncc(Cl)c4)c32)CC1", "f"],
  ["COCC(C)c1nc2cc(-c3noc(=O)[nH]3)nc(-c3cncc(Cl)c3)c2n1[C@H](C)[C@H]1CC[C@H](C)CC1 (stereo not given in full)", "t"]
]}
